Data credit: patent US20180362643A1

assayed system: T1, full-length human PACAP38 (human, not fully specified)
T1 construct: Corresponds to amino acids 132-169 of the precursor (NP 001108.2); The description says natural PACAP38 is C-terminally amidated; also called Full-length PACAP38
T1 peptide: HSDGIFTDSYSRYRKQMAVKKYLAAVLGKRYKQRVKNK
assay text: ELISA screen of B-cell culture supernatant; full-length PACAP38 at 10 ng/mL
value kind: Optical Density (OD)
// units = OD; emit number, no label

binder="mAb5 (antibody, V domains shown, Rabbit monoclonal antibody (SLAM), recombinant; also called monoclonal anti-PACAP antibody 5; 5 (c71)) VH: QSVEESGGRLVTPGTPLTLTCTVSGFSLSTYNMCWVRQAPGKGLEWVGFINSDDSAYYASWAKGRFTFSKTSTTVDLKIASPTTEDTATYFCARYDWDYYYSRLDLWGPGTLVTVSS VL: DIVLTQTPASVSAAVGGTVSISCQSSESVYNNNYLSWFQQKPGQPPKLLIYGASTLASGVPSRFEGSGSGTQFTLTISDVQCDDAATYYCLGDYIIIENIFGGGTEVVVKG" measure_unit=OD value=3.21

Qu. Name the reported Optical Density value associated with the binder mAb6 (antibody, V domains shown, Rabbit monoclonal antibody (SLAM), recombinant; also called monoclonal anti-PACAP antibody 6; 6 (c55)) VH: QLEESGGGLVQPGASLTLTCTTSGFSLSDNYLCWVRQAPGRGLEWVACIGIVLRSTGATYYASWAEGRFTISKTSPTTVTLEMTSLTAADTATYFCALDLGYGGPLWGPGTLVTVSS VL: AQVLTQTPASVSAAVGGTVTINCQASQSVYNNKNLAWYQQKPGQPPKLLIYFSSTLASGVPSRFRGSGSGTQFTLTISGVQCGDAATYYCLGEFGSIWAFGGGTEVVVKG
Ans. 3.55

Qu. Name the reported Optical Density value associated with the binder mAb2 (antibody, V domains shown, Rabbit monoclonal antibody (SLAM), recombinant; also called monoclonal anti-PACAP antibody 2; 2 (c81)) VH: QSLEESGGGLVQPEGSLTLTCTASGFSFNSSSYMCWVRQAPGKGLEWIGCIFTGSSGNTYYATWAQGRFTISKTSTTVTLEMTSLTAADTATYFCARDRAYFLVGYFYATYYFDLWGPGTLVTVSS VL: DVVMTQTPSPVSAQVGGTVTINCQASESIDSDLSWYQQKPGQPPKLLIYRTFTLESGVPSRFKGSGSGTDYTLTISDLECADAAIYYCQCTDGSSISGSYGWDAFGGGTEVVVKG
Ans. 3.39

Qu. Name the reported Optical Density value associated with the binder mAb4 (antibody, V domains shown, Rabbit monoclonal antibody (SLAM), recombinant; also called monoclonal anti-PACAP antibody 4; 4 (c47)) VH: QSVEESGGRLVTPGTPLTLTCTASGIDLSSYAMIWVRQAPGEGLEYIGFIDAGDGNTYYASWAKGRFTISKTSTTVDLKITSPTTEDTATYFCARGDPGWSNGFALWGQGTLVTVSS VL: DIVMTQTPASVSGAVGGTVTIKCQASQSIRNELSWYQQKPGQPPKLLIYKASTLASGVPSRFSGSGFGTEFTLTISGVQCDDAATYYCQNNYGTRRNNYVFPFGGGTEVVVKG
Ans. 2.09
